# assay notes: Inhibition of PI3K (unknown origin)
# Design: species or system Homo sapiens

{"smiles code": "COc1ncc(-c2ccc3nccc(-c4ccnnc4)c3c2)cc1NS(=O)(=O)c1ccc(F)cc1F", "IC50 (nM)": 0.3}

---

# study system: Phosphatidylinositol 4,5-bisphosphate 3-kinase catalytic subunit beta isoform (Homo sapiens, UniProt P42338)
# Sequence (P42338 whole entry, canonical isoform): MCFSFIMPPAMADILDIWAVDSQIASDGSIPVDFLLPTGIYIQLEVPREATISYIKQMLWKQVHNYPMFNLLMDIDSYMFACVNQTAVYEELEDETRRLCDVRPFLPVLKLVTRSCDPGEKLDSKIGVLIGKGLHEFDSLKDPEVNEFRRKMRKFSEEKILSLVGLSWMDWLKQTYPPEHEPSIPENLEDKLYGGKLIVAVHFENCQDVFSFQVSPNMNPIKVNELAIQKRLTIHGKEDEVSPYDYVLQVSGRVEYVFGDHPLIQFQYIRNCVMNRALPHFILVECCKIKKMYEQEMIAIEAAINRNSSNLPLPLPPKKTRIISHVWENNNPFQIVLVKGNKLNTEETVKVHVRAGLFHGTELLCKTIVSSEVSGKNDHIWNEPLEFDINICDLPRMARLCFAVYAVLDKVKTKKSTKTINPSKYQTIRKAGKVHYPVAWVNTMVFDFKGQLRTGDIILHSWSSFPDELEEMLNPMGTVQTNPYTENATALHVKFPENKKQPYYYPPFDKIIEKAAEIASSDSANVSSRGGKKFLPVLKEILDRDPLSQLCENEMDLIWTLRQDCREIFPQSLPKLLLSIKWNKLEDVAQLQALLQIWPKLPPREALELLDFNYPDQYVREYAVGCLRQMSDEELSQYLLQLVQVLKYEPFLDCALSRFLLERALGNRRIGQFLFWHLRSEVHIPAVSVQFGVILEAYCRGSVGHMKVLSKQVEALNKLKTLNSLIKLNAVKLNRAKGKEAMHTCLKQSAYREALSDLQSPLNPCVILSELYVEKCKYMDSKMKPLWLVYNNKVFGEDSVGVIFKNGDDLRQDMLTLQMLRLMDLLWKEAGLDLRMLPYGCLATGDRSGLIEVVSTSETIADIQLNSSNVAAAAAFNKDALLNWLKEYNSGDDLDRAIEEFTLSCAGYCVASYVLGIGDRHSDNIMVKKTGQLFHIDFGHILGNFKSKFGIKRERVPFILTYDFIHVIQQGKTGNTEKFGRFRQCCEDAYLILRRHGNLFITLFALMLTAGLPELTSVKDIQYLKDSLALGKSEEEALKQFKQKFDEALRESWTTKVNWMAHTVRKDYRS
# assay notes: Inhibition of full-length PI3Kbeta (unknown origin) expressed in baculovirus infected Sf9 cells by ADP-Glo luminescent kinase assay

{"compound": "Cn1cc(CNCC2CCN(c3ncc(C(=O)NO)cn3)CC2)c2ccccc21 [QUISINOSTAT]", "IC50 / nM": 54}

Source of measurements: ChEMBL document CHEMBL5126514
